Quick list: IC50 per entry.
Target: TYK2 (Homo sapiens)
Construct: 5 μl of catalytic domain recombinant Kinase enzyme+Tyr peptide substrate (Invitrogen, CA)
Sequence (P29597 897-1176 limits assumed): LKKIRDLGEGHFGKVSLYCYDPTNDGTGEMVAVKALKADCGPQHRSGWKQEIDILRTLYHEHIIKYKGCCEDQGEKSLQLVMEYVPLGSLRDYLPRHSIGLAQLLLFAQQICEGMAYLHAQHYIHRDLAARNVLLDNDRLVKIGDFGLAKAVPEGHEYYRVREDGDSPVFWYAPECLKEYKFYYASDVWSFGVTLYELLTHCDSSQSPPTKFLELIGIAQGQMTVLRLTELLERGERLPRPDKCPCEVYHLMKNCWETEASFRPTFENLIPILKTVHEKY
Assay: Z'-LYTE kinase assay TYK2

NC(=O)c1cnc(Nc2ccc(C3CCOCC3)cc2)cc1NCc1cccc(F)c1 [Example 143] = > 1000 nM
CCC(=O)N1CCC(c2ccc(Nc3cc(NCc4cccs4)c(C(N)=O)cn3)cc2)CC1 [Example 197] = 100 to 1000 nM
NC(=O)c1cnc(Nc2ccc(C(=O)N3CCCC3)cc2)cc1NCC1CCCC1 [Example 41] = 10 to 100 nM

Lookup: GET /values?readout=IC50&item= CS(=O)(=O)N1CCN(c2ccc(Nc3cc(NC4(c5ccccc5)CC4)c(C(N)=O)cn3)cc2)CC1 [Example 364]
Found: > 1000 nM

Lookup: Can you check NC(=O)c1cnc(Nc2ccc(N3CCOCC3)cc2)cc1NCc1ccccc1 [Example 250] next?
Found: > 1000 nM

Lookup: Can you check CC(=O)N1CCN(c2ccc(Nc3cc(NCc4ccccc4)c(C(N)=O)cn3)cc2)CC1 [Example 3] next?
Found: 100 to 1000 nM

Lookup: Can you check CN(C)C(=O)c1ccc(Nc2cc(NCc3c(F)cccc3F)c(C(N)=O)cn2)cc1 [Example 102] next?
Found: 10 to 100 nM

Lookup: Can you check NC(=O)c1cnc(Nc2cccc(N3CCOCC3)c2)cc1NCc1cccc(F)c1 [Example 65] next?
Found: > 1000 nM
